Data provenance: PubChem BioAssay

Assay: small-molecule binders of probe aLefty1, primary screen, biochemical, small-molecule microarray, 635/667 nm fluorescence (AID 1153);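 note: score merges spot fluorescence with signal-to-noise ratio from the scanned slide images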
Details: higher = more signal
measurement_label: composite z-score
Would you mind answering with just the numeric figure?

**Query** Answer with the recorded composite z-score for the molecule listed here: `CCOC(=O)CCN1C(=O)[C@H]2[C@H]3[C@H](O)[C@H](O)CC(=NOCC(C)C)[C@@H]3CC[C@H]2C1=O`
**Result** -0.0051

**Query** Indicate its recorded composite z-score; the molecule in question is `CCN1C(=O)[C@H]2[C@H]3[C@H](O)[C@H](O)CC(=NNC(=O)OCc4ccccc4)[C@H]3CC[C@H]2C1=O`
**Result** 0.0931

**Query** Fill in reported composite z-score for this entry: `COC(=O)C1=C(C)N(Cc2ccccc2)C2=C3C(=O)OCC[C@@H]3[C@@](O)(C(=O)OC)C(=O)N2[C@@H]1c1ccccc1`
**Result** -0.286

**Query** Please supply the value of reported composite z-score for the item `CCCNC(=O)OC[C@H]1O[C@H](CCON=C[C@@H](C)[C@H](OCc2ccccc2)C(C)C)C=C[C@@H]1Oc1ccc(OC)cc1`
**Result** -0.105

---

Kindly state z-score for each of the entries shown.
Experiment: mitochondrial membrane potential change in A549 cells, profiling panel, cell-based, JC-1 fluorescence, basal, 24 h, 100 nL (AID 1138);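 note: A549 lung adenocarcinoma cells under basal conditions with no added stimulus; test concentration not given here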
Details: higher = more signal
Simply state the number, no unit and no words.

**Query** Report z-score, nothing else, for this compound: `CCN1C(=O)[C@H]2[C@H]3[C@H](O)[C@H](O)CC(=NO[C@H](C)c4cn([C@H](CO)Cc5ccccc5)nn4)[C@@H]3CC[C@H]2C1=O`
**Result** -0.00321

**Query** Retrieve z-score measured for `CO[C@@H]1COC(=O)CC=C[C@H](C)[C@H](OC)COC(=O)[C@@H]2CCCN2C(=O)CC=C[C@H]1C` and print it.
**Result** -0.213

**Query** Give z-score for CCC1=NOC(CCC2CC(OC(=O)NCc3cccc4c3OCO4)CC3(CCCC(COC(=O)NCCc4ccc(Cl)cc4)O3)O2)C1 (stereo not drawn)
**Result** -0.415

**Query** Fill in reported z-score for this entry: C=CCOCC1CN2[C@@H](CC[C@@H](C)[C@@H]2c2ccc(Br)cc2)C(=O)O1 (stereo partly drawn)
**Result** 1.88

**Query** Give a short answer stating reported z-score for `CO[C@@H](C1CCCCC1)[C@@H](C)[C@H](OCc1cccc(Br)c1)[C@@H](C)CO` .
**Result** -0.72

**Query** Recall and state the measured z-score for `CC(=O)OC[C@H]1O[C@H](C#CCC2CCCCC2)C=C[C@@H]1OC(C)=O` .
**Result** 0.587

**Query** In one line, give reported z-score of the entry COC(=O)[C@H](C)NC(=O)CCC1CC(OC(=O)NCCc2ccc(F)cc2)CC2(CCCC(COC(=O)NCc3ccccc3)O2)O1 (stereo partly drawn) .
**Result** 0.708

**Query** Identify z-score associated with the compound `COc1ccc2c(c1)O[C@@H](c1cccc(C(F)(F)F)c1)[C@H](O)C2=O`
**Result** 0.903

---

Biological target: Pro-neuregulin-1, membrane-bound isoform (Homo sapiens)
Assay: NRG1 binders on small-molecule microarrays, primary screen, psychiatric disease protein project, biochemical, small-molecule microarray, fluorescence 635/667 (AID 1075);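 note: score combines 667 nm spot fluorescence with signal to noise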
Details: NRG1 binding, 635 nm fluorescence, higher = more signal
measurement_label: composite z-score
Form rule: numeric answer, no unit written next to it.

**Query** Supply measured composite z-score of `CO[C@H]1COC(=O)CCC[C@H](C)[C@@H](OC)COC(=O)CC=C[C@@H]1C` in your reply.
**Result** -0.21

**Query** Quote composite z-score reported for `O=C1C2=CC[C@H]3C(=O)N(C4CCCCC4)C(=O)[C@H]3[C@H]2[C@H](O)[C@@H]2O[C@H]12` please.
**Result** -0.0738

**Query** Output composite z-score of O=C(NCCC[N+]1=CC=NC1c1ccccc1)N1CCCc2nc(-c3ccc(Br)cc3)ccc21 (centres undefined)
**Result** 1.21

**Query** Return reported composite z-score. Input compound: `CC(CCC(=O)OC[C@H]1O[C@H](C#Cc2ccccc2)C=C[C@@H]1Oc1ccc(C)cc1)=NOC[C@@H](C)[C@H](OCc1ccccc1)C(C)C`
**Result** -1.01
